System: Candida tropicalis
RUN DESCRIPTION: Antifungal activity, microtiter broth dilution MIC
Format: cell-based
EXPERIMENTAL CONTEXT: Candida tropicalis ID 94-13; 35 °C, 24-48 hours

- COMPOUND: "CO[C@H]1C[C@@H]2CC[C@@H](C)[C@@](O)(O2)[C@]2(O)C(=O)N3[C@@H](CCC[C@@H]32)C(=O)O[C@H]([C@H](C)C[C@@H]2CC[C@@H](O)[C@H](OC)C2)CC(=O)[C@H](C)/C=C(\\C)[C@@H](O)[C@@H](OC)C(=O)[C@H](C)C[C@H](C)/C=C/C=C/C=C/1C [Compound I]"
  QUALIFYING SIGN: "="
  MIC, µg/mL: 16
- COMPOUND: "OC(Cn1cncn1)(Cn1cncn1)c1ccc(F)cc1F [Fluconazole]"
  QUALIFYING SIGN: "≥"
  MIC, µg/mL: 16
- COMPOUND: "Clc1ccc(COC(Cn2ccnc2)c2ccc(Cl)cc2Cl)c(Cl)c1 (centres unmarked) [Miconazole]"
  QUALIFYING SIGN: "="
  MIC, µg/mL: 4
- COMPOUND: "C[C@@H]1[C@H](O)[C@@H](C)/C=C/C=C/C=C/C=C/C=C/C=C/C=C/[C@H](O[C@@H]2O[C@H](C)[C@@H](O)[C@H](N)[C@@H]2O)C[C@@H]2O[C@](O)(C[C@@H](O)C[C@@H](O)[C@H](O)CC[C@@H](O)C[C@@H](O)CC(=O)O[C@H]1C)C[C@H](O)[C@H]2C(=O)O [Amphtericin B]"
  QUALIFYING SIGN: "="
  MIC, µg/mL: 0.25
- COMPOUND: "C[C@@H]1[C@H](O)[C@@H](C)/C=C/C=C/CC/C=C/C=C/C=C/C=C/C(O[C@H]2O[C@H](C)[C@@H](O)[C@H](N)[C@@H]2O)CC2O[C@](O)(CC(O)C(O)CCC(O)CC(O)CC(O)CC(=O)O[C@H]1C)CC(O)C2C(=O)O (some centres unmarked) [Nystatin]"
  QUALIFYING SIGN: "="
  MIC, µg/mL: 1
